tested on: NCI/ADR-RES; assay: Growth inhibition of human NCI/ADR-RES cells at 10 uM incubated for 48 hrs by sulforhodamine B assay; type: functional, cell-based
Calls of active or inactive are those of the source. The calls are words filed in the database; no cut-off is given here.
Valid outcomes are listed here; reply with one: active, inactive

Would you mind telling me which call this test gave COc1cc(C2=NN(c3ccc(Cl)cc3)C(c3cccc(Nc4ccnc5cc(Cl)ccc45)c3)C2)cc(OC)c1OC (stereo not given) ? inactive

Would you mind telling me which call this test gave COc1ccc(C(=O)/C=C/c2cccc(Nc3ccnc4cc(Cl)ccc34)c2)cc1 ? active

Would you mind telling me which call this test gave Clc1ccc(C2=NN(c3ccc(Cl)cc3)C(c3cccc(Nc4ccnc5cc(Cl)ccc45)c3)C2)cc1 (stereo not given) ? inactive

Would you mind telling me which call this test gave Clc1ccc(C2=NN(c3cc(Cl)cc(Cl)c3)C(c3cccc(Nc4ccnc5cc(Cl)ccc45)c3)C2)cc1 (stereo not given) ? inactive

Would you mind telling me which call this test gave COc1ccc(C2=NN(c3ccccc3)C(c3cccc(Nc4ccnc5cc(Cl)ccc45)c3)C2)cc1 (stereo not given) ? inactive

Would you mind telling me which call this test gave COc1cc(C(=O)/C=C/c2cccc(Nc3ccnc4cc(Cl)ccc34)c2)cc(OC)c1OC ? active

Would you mind telling me which call this test gave O=CN1N=C(c2ccc(Cl)cc2)CC1c1cccc(Nc2ccnc3cc(Cl)ccc23)c1 (stereo not given) ? active

Would you mind telling me which call this test gave Clc1ccc(C2=NN(c3ccccc3)C(c3cccc(Nc4ccnc5cc(Cl)ccc45)c3)C2)cc1 (stereo not given) ? inactive

Would you mind telling me which call this test gave COc1ccc(C2=NN(c3ccc(Cl)cc3)C(c3cccc(Nc4ccnc5cc(Cl)ccc45)c3)C2)cc1 (stereo not given) ? inactive

Would you mind telling me which call this test gave COc1ccc(C2=NN(C=O)C(c3cccc(Nc4ccnc5cc(Cl)ccc45)c3)C2)cc1 (stereo not given) ? active
